Data credit: ChEMBL document CHEMBL4673336

STUDY SYSTEM: Cathepsin K (Homo sapiens) (UniProt P43235)
Sequence (P43235 whole entry): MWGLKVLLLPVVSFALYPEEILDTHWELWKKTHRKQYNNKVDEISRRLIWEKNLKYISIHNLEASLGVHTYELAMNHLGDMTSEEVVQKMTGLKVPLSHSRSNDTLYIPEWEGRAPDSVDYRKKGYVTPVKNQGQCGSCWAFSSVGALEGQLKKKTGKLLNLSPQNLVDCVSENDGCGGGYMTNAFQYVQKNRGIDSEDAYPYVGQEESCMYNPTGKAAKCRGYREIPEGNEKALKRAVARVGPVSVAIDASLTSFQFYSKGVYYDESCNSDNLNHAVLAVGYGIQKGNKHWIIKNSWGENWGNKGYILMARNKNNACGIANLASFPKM
METHOD SUMMARY: Inhibition of recombinant human cathepsin K at 10 uM using Z-Leu-Arg-AMC as substrate measured after 20 mins relative to control
ENDPOINT NAME: inhibition (%)

Answered examples (2):
SMILES NOTATION: C[C@@H](OCc1ccccc1)[C@@H](C#N)NC(=O)[C@H](Cc1c[nH]c2ccccc12)NC(=O)c1ccc(-c2ccccc2)cc1
UNIT TEXT: %
inhibition: 70
//
SMILES NOTATION: C[C@@H](OCc1ccccc1)[C@@H](C#N)NC(=O)[C@H](Cc1cccc(Cl)c1)NC(=O)c1cccc(-c2cncnc2)c1
UNIT TEXT: %
inhibition: 82

P: C[C@@H](OCc1ccccc1)[C@@H](C#N)NC(=O)[C@H](Cc1ccc(Br)cc1)NC(=O)c1ccc(-c2ccccc2)cc1
Q: C[C@@H](OCc1ccccc1)[C@@H](C#N)NC(=O)[C@H](Cc1cccc(Br)c1)NC(=O)c1ccc(-c2cccnc2)cc1
Inquiry: Pick one, P or Q : lowest reported inhibition. Give the chosen item's label as your response.
Reply text: P
